Source of measurements: ChEMBL document CHEMBL4152377

test-protocol: Oral bioavailability in Sprague-Dawley rat at 10 mg/kg administered via gavage by UPLC analysis
Assay type: ADME, organism-based
settings: in vivo
Catalogue of bioavailability readings, one per entry.
Give the number; % is assumed, so skip it.

Look over these answered cases.
[
  {
    "smiles-record": "N#Cc1cc(F)cc(Oc2ccc3c(c2C(F)F)[C@@H](O)C(F)(F)S3(=O)=O)c1",
    "value-observed": 36
  },
  {
    "smiles-record": "CS(=O)(=O)c1ccc(Oc2cc(F)cc(C#N)c2)c2c1[C@H](O)C(F)(F)C2",
    "value-observed": 40
  },
  {
    "smiles-record": "N#Cc1cc(F)cc(Oc2ccc(S(=O)(=O)C(F)F)c3c2CC(F)(F)[C@H]3O)c1",
    "value-observed": 6
  }
]

Next molecule, please.
### Prompt I am curious: what bioavailability value has been reported for `N#Cc1cc(F)cc(Oc2ccc(S(=O)(=O)CF)c3c2CC(F)(F)[C@H]3O)c1` ?
### Response 32
